Catalogue of sequences with associated apparent KD of MS2 coat protein
tested on: MS2 coat protein; assay: apparent KD of MS2 coat protein; designed switch direction (-1 OFF switch, 1 ON switch): 1; higher = weaker reporter binding; conditions: Eterna round: R98; input ligand: none
The reply should be a number in nM, with the unit left off.

{"inputSequence": "CGAACCACUUAGGUACCACACAUGAGGAUCACCCAUGUAUCACAGGAUAUGCAUGAUAUAUUCAGGCAGAAGGGUGAUCUUACC [Esananti]", "valueUnit": "nM", "apparent KD of MS2 coat protein": 24.7}
{"inputSequence": "AAUAAUCAGGUAGGAUAUGCUCAGGAAUACUGAGCAGAAGGACUAGAAACCUGAGGAUCACCCAGGUAACUGGAAUAAUAAUAA [Same State NG1 - A3C, U17G Submission 6A]", "valueUnit": "nM", "apparent KD of MS2 coat protein": 78.3}
{"inputSequence": "AUGAAGAGGCAAGGAUAUCGAGUGCUGGGCCUAUACAUGAGGAUCACCCAUGUCCUGGCAGGACGUGAGAAGGUGUAUCGAAUA [Ussotemaa]", "valueUnit": "nM", "apparent KD of MS2 coat protein": 244}
{"inputSequence": "UCACUCACGUUAGGAUAUGGAUCGGAAAACGAUCCAGAAGGAACCUGCAAACAAGAGGAUCACCCUUGUUCCAAUAACGAGUGA [SameSame 6 - Jieux - Same State NG 1]", "valueUnit": "nM", "apparent KD of MS2 coat protein": 51.2}
{"inputSequence": "AUAUAAAAUAUAGGAUAUGGAAACAUGAGGAUCACCCAUGUAUGAUAAGAUAAAUAAUGAUAUAGCCAGAAGGAUACAAUAUAA [LRO008_SS NG 2]", "valueUnit": "nM", "apparent KD of MS2 coat protein": 38.2}

q: Given the entry GGAGACCUCACAGGAUAUGCUGGACUUUGUCCAGCAGAAGGGUGAACAUGAGGAUCACCCAUGUAGGUCUCCAAAAUAUUUAAU [Denovo 50] , report its measured apparent KD of MS2 coat protein.
a: 100

q: Given the sequence GACGGAUUCUUAGGAUAUGCUCAGGAUAACUGAGCAGAAGGAAGAAUAACCUGAGGAUCACCCAGGUAAUACUGAACGUCAAUA [Same State NG1 - A3C, U17G Submission 9B] , what is its reported apparent KD of MS2 coat protein?
a: 64.1

q: What value of measured apparent KD of MS2 coat protein is listed for AGUUGCAAACAGAACAUGAGGAUCACCCAUGUGCUCUCGUGUAAGGAUAUACAUUCGUAUGGAAAGUAGAAGGUACUAAUUAUG [JR_SSNG3_Sub93] ?
a: 65.1

q: Query: apparent KD of MS2 coat protein; subject: CAUAUAUGGUGAGGAUAUGCAGAGGAUCACCCUGUAGAAGGCAUCAGGGUAGAAGGUGCAAGGAUCACCUGUAAGGAUAUAUCC [pwkr2 ssNG1 DX.28]
a: 864

q: What apparent KD of MS2 coat protein value was documented for this sequence, GACGAAUUCUUAGGAUAUCGAGUGGAUAACACUCGAGAAGGAAGAUAUACCUGAGGAUCACCCAGGUUAAACUGGACGUCAAUA [Same State NG1 - A3C, U17G Submission 8C] ?
a: 205

###

test system: MS2 coat protein; assay: apparent KD of MS2 coat protein; designed switch direction (-1 OFF switch, 1 ON switch): -1; higher = weaker reporter binding; conditions: Eterna round: R95; input ligand: none
Decide by apparent KD of MS2 coat protein: equal to or exceeding 40 nM means Met, less means Not met.

Study these solved cases before continuing.
{"inputSequence": "UUUAAUUUUUUUUUUUUACAAGCUUUUUGCUCGUCUUAUACAUGAGGAUCACCCAUGUGGGUAGAGAGUAAAUUAUC [JMF 59] (puzzle: Sensor v3, turn-off variant 2)", "labelClass": "Not met"}
{"inputSequence": "AUAACAAGCUUUUUGUUCGUAGAACAUGAUGCUCGAGUCACAUGAGGAUCACCCAUGUCAACCAGAUAGAUAGUUGA [JR_SV3TOV2_Sub061] (puzzle: Sensor v3, turn-off variant 2)", "labelClass": "Met"}
{"inputSequence": "AAGAAACAUGAGGAUCACCCAUGUGAGGAUAUGACAAAGAAAAGAAAAGAAAGAAGAAUCAGAAGGCACAAAGG [salish99-ex1_r3_033] (puzzle: Exclusion 1)", "labelClass": "Met"}
{"inputSequence": "UGGUAACAUGAGGAUCACCCAUGUCAGGAUAUCAGGAAGAAGAGAGGAGAGGAGAAGAUGAGAAGGGACUAUAU [Excluse me! 11 - Jieux - Exclusion 1] (puzzle: Exclusion 1)", "labelClass": "Not met"}
{"inputSequence": "CCGCAAAUUGAGGAUAUCGUAUCGGAUACGAUACGAGAAGGCGAAACAUGAGGAUCACCCAUGUGUCCUAGCGG [Fiskers Ex 6 - 33] (puzzle: Exclusion 6)", "labelClass": "Not met"}

q: // inclusive: apparent KD of MS2 coat protein at least 40 nM? input: AGAUGUAGAUGCCGAUCCUACAUGAGGAUCACCCAUGUAGCUAGACGUGCGGGCGGCGCUCGUCGGACUACCAGUAG [salish99_TOv1_r3_097] (puzzle: Sensor v3, turn-off variant 1)
a: Met

q: I'd appreciate it if you could say whether AAAACCUCUGUCAGGAUAUCCAUGCGUCCAAAAGCGGAGAAGGGACAUGAGGAUCACCCAUGUUAGCAAAAUCA [Ceenxequ] (puzzle: Brourd's mod of Exclusion 4) has apparent KD of MS2 coat protein at least equal to 40 nM.
a: Not met

q: Dear colleague, could you confirm whether AGUACUAACACGGAAGUGUUAGUACUAUAAGCUUGUGUUACAUGAGGAUCACCCAUGUCCUCAUAAGCUCGUCUUAU [Mat - Sensor v3 - Turn-off var 2 - D69] (puzzle: Sensor v3, turn-off variant 2) has apparent KD of MS2 coat protein at or above 40 nM?
a: Met

q: Assess whether reported apparent KD of MS2 coat protein for AGUACUAACACGAGAGUGUUAGUACAAUAAGCUUGUGUUACAUGAGGAUCACCCAUGUCCUCAUAAGCUCGUCUUAA [Mat - Sensor v3 - Turn-off var 2 - D58] (puzzle: Sensor v3, turn-off variant 2) sits at 40 nM or higher.
a: Met

q: Hello, I need to know if AGUUGGCGAGGAUAUACAUGAGGAUCACCCAUGUGAAAUAGAAGAGUGAGGAAGAAAAGUAGAAGGCGCUGACA [Mat - Exclusion 3 - Mod of Salish D40] (puzzle: Exclusion 3) has measured apparent KD of MS2 coat protein not below 40 nM. Thanks!
a: Met

q: // inclusive: apparent KD of MS2 coat protein at least 40 nM? input: AAGAAUUUAUAGGAUAUCGAAAGUAUAAUUUAACGAGAAGGAUGAACAUGAGGAUCACCCAUGUGGUAUCAUGG [JL-ex6-3.09] (puzzle: Exclusion 6)
a: Met

q: Could you please find out whether AAGAAACAUGAGGAUCACCCAUGUGAGGAUAUGAAAAAGAAAAGAAAAGAAAGAAGAUUCAGAAGGCACAAAGG [salish99-ex1_r3_021] (puzzle: Exclusion 1) has apparent KD of MS2 coat protein that meets 40 nM or exceeds it?
a: Not met

###

Measured apparent KD of MS2 coat protein, listed per entry for reference.
system: MS2 coat protein; assay: apparent KD of MS2 coat protein; designed switch direction (-1 OFF switch, 1 ON switch): -1; higher = weaker reporter binding; conditions: input ligand: microRNA oligo, concentration not stated

Examples from the recorded data:
{"inputSequence": "GCGCACCUACCAAAAGGUAGGUCAACAUGAGGAUCACCCAUGUAGGAUAUCGAUUGCUUUGCAGUCGAGAAGGACGUGAUGCGC [JL ENG3 3.80 Mod 15] (Eterna round: R96, puzzle: Exclusion NG 3)", "apparent KD of MS2 coat protein": "24.5 nM"}
{"inputSequence": "ACAUGGGAGCGAGGAUAUAGCCCAUGUGAAGAACUAGAAGGCGCAGACAUGAGGAUCACCCAUGUGUUCAUGAGGAGGUGGACA (Eterna round: R96, puzzle: Exclusion NG 1)", "apparent KD of MS2 coat protein": "42.4 nM"}
{"inputSequence": "CUGCUGGAGCGGCGCUUUGGUCGUACAUGAGGAUCACCCAUGUAGGAUAUGGUAAAAUUCGCCUGCUAGAAGGAUAGAGUGGUC [salish99_ExNG3_r04_617] (Eterna round: R96, puzzle: Exclusion NG 3)", "apparent KD of MS2 coat protein": "62.5 nM"}
{"inputSequence": "CGGAGCGGCUUAGGAUAUGCUGGAAUAUCCCUGCUCCUCAGAACAUGAGGAUCACCCAUGUACUGGCAGAAGGGAGCUGCAGAG [Inxeedsoxe] (Eterna round: R96, puzzle: Exclusion NG 2)", "apparent KD of MS2 coat protein": "15.4 nM"}

q: For the sequence shown here, GCUUUUGGGCAAGGAUAUCCUGCGCGGUUCCGGUUCGUGUCUGUCACAUGAGGAUCACCCAUGUGGGAGAAGGUGCCUGUGGUG [Design 72] (Eterna round: R96, puzzle: Exclusion NG 2) , give the reported apparent KD of MS2 coat protein.
a: 13.6 nM

q: Recorded apparent KD of MS2 coat protein of AACAUGAGGAUCACCCAUGUAAUGGACAGAUCACCGACCACGCAGGAUAUUAGGCCUCAAAUUCUUAAGAAGGGCGAGGAUGUG [Eternabot solution 49] (Eterna round: R96, puzzle: Exclusion NG 3) , please.
a: 52 nM

q: For the sequence shown here, AUGGUUCGAUUAGGAUAUUAUAGAUUGAAUAGUAUGAUUUACAUGAGGAUCACCCAUGUUACAUAUAAGAAGGAAUCGAAUCAU [JR_ExcNG2_Sub087] (Eterna round: R96, puzzle: Exclusion NG 2) , give the reported apparent KD of MS2 coat protein.
a: 11.5 nM

q: Consider the sequence shown here: GUAAAUCAUGUAGGAUAUGCGUGGCGAAGCUAUGCAGAAGGACAUGAGGAUCACCCAUGUGCUUGCGUCCGCGUACGGAUGCAA [Mat - Exclusion NG 1 - Mod of JL - D70] (Eterna round: R96, puzzle: Exclusion NG 1) What is its recorded apparent KD of MS2 coat protein?
a: 124 nM

q: Tell me the measured apparent KD of MS2 coat protein of CGGUGCUCGUGGAAACAUGAGGAUCACCCAUGUUGAGUUAGCGAGGAUAUCGGUAACACAUAUCACGAGAAGGCGCGAACCAGA [Ex NG3 #31] (Eterna round: R96, puzzle: Exclusion NG 3) , please.
a: 11.9 nM

q: What value of measured apparent KD of MS2 coat protein is listed for CCUAAACAUGAGGAUCACCCAUGUGAGGAUAUGAUGCGAAUAAAGAAAGAAGAAAGCAUCAGAAGGCACAUAGG (Eterna round: R96, puzzle: Exclusion 1) ?
a: 131 nM

q: What value of measured apparent KD of MS2 coat protein is listed for UGACACACCUGAGGAUAUUCUGAACGUUUCCCAGAAGAAGGUAGGUACAGCGGGAGCGCCACAUGAGGAUCACCCAUGUCUACC [Eternabot solution 46] (Eterna round: R96, puzzle: Exclusion NG 1) ?
a: 103 nM
